Ref: patent US11278522B2

Could you please report measured Ki for the items listed next?
# experimental system: opiate receptors
# method description: [3H]-naloxone binding competition in rat forebrain membranes
# conditions used: rat forebrain membranes, 2 nM [3H]-naloxone, single-site model

* CCC1=NC(C)CC1(c1ccccc1)c1ccccc1 (racemic) | 21 µM

Next:
Exercise: Quick one: Ki for CC=C1N(C)C(C)CC1(c1ccccc1)c1ccccc1 (racemic) ?
Solution: 0.918 µM

====

# experimental system: human α4β2 nAChRs (Homo sapiens, UniProt P17787+P43681)
# Sequence (P43681 29-627 limits assumed): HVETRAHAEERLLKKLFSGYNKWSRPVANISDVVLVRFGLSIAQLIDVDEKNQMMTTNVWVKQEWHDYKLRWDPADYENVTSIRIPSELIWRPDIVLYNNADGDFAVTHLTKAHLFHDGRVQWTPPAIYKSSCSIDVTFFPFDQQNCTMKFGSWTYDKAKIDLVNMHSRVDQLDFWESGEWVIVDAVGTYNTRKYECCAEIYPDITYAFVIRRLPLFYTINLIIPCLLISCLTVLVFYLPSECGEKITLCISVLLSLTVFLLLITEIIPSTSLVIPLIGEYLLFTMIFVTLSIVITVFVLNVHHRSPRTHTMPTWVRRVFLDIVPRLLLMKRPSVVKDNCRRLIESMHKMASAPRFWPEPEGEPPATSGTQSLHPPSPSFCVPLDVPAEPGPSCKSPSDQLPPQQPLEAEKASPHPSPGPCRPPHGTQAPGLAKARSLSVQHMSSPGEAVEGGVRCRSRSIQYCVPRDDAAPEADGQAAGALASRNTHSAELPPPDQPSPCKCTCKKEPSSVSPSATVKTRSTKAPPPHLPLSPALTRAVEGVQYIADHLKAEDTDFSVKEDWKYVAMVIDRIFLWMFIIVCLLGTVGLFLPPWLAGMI
# Sequence (P17787 26-502): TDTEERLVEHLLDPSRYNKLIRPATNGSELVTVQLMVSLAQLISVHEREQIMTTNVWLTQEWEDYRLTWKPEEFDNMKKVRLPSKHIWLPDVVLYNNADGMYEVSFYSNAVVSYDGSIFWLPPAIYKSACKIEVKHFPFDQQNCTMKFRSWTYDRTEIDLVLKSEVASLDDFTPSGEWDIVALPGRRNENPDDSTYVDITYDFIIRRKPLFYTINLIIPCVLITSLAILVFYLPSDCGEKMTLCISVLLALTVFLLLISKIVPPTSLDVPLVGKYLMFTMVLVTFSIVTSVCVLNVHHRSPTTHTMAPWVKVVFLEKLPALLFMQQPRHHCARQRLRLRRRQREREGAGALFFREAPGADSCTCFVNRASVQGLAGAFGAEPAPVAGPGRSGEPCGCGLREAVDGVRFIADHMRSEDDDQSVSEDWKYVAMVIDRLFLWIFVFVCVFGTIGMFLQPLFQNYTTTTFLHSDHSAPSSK
# method description: 86Rb+ efflux assay, inhibition of nicotine-stimulated efflux, α4β2 nAChRs
# conditions used: 86Rb+ efflux stimulated by 100 μM nicotine; HEK cells YXα4β2H1; mean ± standard error
Counter-ions that a name gives are not always drawn.
Could you please report measured pIC50 for the items listed next?
Give bare numbers, as −log10 of the molar value.

- CC=C1N(C)C(C)CC1(c1ccccc1)c1ccccc1 (single isomer, unassigned; (+)) [(+)-EDDP]: 5.74
- CC=C1N(C)C(C)CC1(c1ccccc1)c1ccccc1 (single isomer, unassigned; (-)) [(−)-EDDP]: 5.85
- CCC1=NC(C)CC1(c1ccccc1)c1ccccc1 (single isomer, unassigned; (-)) [(−)-EMDP, hydrochloride]: 4.72
- CNC1(C)C2CCC(C2)C1(C)C (centres unmarked) [Mecamylamine, Mecamylamine HCl]: 6.00

Next:
Exercise: Quick one: pIC50 for CCC1=NC(C)CC1(c1ccccc1)c1ccccc1 (single isomer, unassigned; (+)) [(+)-EMDP, hydrochloride] ?
Solution: 4.62
